The values you see were collected from the RNAGym collection of RNA variant scans (doi:10.1126/science.aae0568).

Would you mind telling me the reported yeast fitness of each entry?
B1: tRNA (parent)
chain: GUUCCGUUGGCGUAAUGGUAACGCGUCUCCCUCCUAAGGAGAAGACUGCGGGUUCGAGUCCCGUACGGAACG

Variants of: B1
Assay: yeast fitness relative to wild type (ratio to wild type); higher = fitter; tRNA-Arg(CCU), competitive growth, 37 C, YPD
Variants at the floor of the assay were thinned out.
Provide a numeric answer; units are not to be included.

input: # input variant: U19A U26C ; wanted: its yeast fitness
output: 0.834

input: # input variant: C33A U35A C62U ; wanted: its yeast fitness
output: 0.617

input: # input variant: A15U C22G G52C ; wanted: its yeast fitness
output: 0.529

input: # input variant: C4U C55U ; wanted: its yeast fitness
output: 0.694

input: # input variant: A43C G48C ; wanted: its yeast fitness
output: 0.933

input: # input variant: U8C A15G G25C A45U ; wanted: its yeast fitness
output: 0.684

input: # input variant: G12C A20C G50A C60U ; wanted: its yeast fitness
output: 0.56

input: # input variant: C60A C66U ; wanted: its yeast fitness
output: 0.608

input: # input variant: C5U U19A G25C A43U ; wanted: its yeast fitness
output: 0.758

input: # input variant: U3A U13C C29A A43G G67C ; wanted: its yeast fitness
output: 0.595

input: # input variant: C61G C66U ; wanted: its yeast fitness
output: 0.635

input: # input variant: G23A C66A ; wanted: its yeast fitness
output: 0.535

input: # input variant: C30U A43U U64C ; wanted: its yeast fitness
output: 0.707

input: # input variant: C11U C27G A43C ; wanted: its yeast fitness
output: 0.577

input: # input variant: U35G A40C C62G C66G ; wanted: its yeast fitness
output: 0.539

input: # input variant: C4G U13A A21C A43U A45G ; wanted: its yeast fitness
output: 0.559

input: # input variant: C4A U32C ; wanted: its yeast fitness
output: 0.912

input: # input variant: U28A U54A ; wanted: its yeast fitness
output: 0.594

input: # input variant: G18A A36U ; wanted: its yeast fitness
output: 0.66

input: # input variant: A36U G41C ; wanted: its yeast fitness
output: 0.686

input: # input variant: C31U A36C ; wanted: its yeast fitness
output: 0.842

input: # input variant: G48A G50A U54A ; wanted: its yeast fitness
output: 0.597

input: # input variant: A15G C27U U28C ; wanted: its yeast fitness
output: 0.731

input: # input variant: C4G A69C ; wanted: its yeast fitness
output: 0.878

input: # input variant: U3C C31U C46A ; wanted: its yeast fitness
output: 0.79

input: # input variant: U3C U19G C27G C33G U53G ; wanted: its yeast fitness
output: 0.578

input: # input variant: C5U A14C ; wanted: its yeast fitness
output: 0.593

input: # input variant: U7A C11A A21C C29U C49U ; wanted: its yeast fitness
output: 0.544

input: # input variant: A21C G58C A65U ; wanted: its yeast fitness
output: 0.521

input: # input variant: C5U C27U ; wanted: its yeast fitness
output: 1.09

input: # input variant: C5U U26G G58A ; wanted: its yeast fitness
output: 0.924

input: # input variant: U13C C27G ; wanted: its yeast fitness
output: 0.544

input: # input variant: G52A C62U ; wanted: its yeast fitness
output: 0.765

input: # input variant: C4U C27U G39C G52A G56A ; wanted: its yeast fitness
output: 0.614

input: # input variant: C34G U35C ; wanted: its yeast fitness
output: 0.613

input: # input variant: C31A C62A ; wanted: its yeast fitness
output: 0.6

input: # input variant: C60A A65U A70U ; wanted: its yeast fitness
output: 0.53

input: # input variant: G9A C24U U26G ; wanted: its yeast fitness
output: 0.569

input: # input variant: C4G C11G C55U C61A ; wanted: its yeast fitness
output: 0.567

input: # input variant: C22A C31G A37G G38C A43G G58C ; wanted: its yeast fitness
output: 0.532

input: # input variant: U35C C46A A70U ; wanted: its yeast fitness
output: 0.767

input: # input variant: U2C A43G ; wanted: its yeast fitness
output: 0.887

input: # input variant: G12C A36C ; wanted: its yeast fitness
output: 0.518

input: # input variant: C29G ; wanted: its yeast fitness
output: 0.686

input: # input variant: G50C C55U ; wanted: its yeast fitness
output: 0.716

input: # input variant: C11U G50A G56A ; wanted: its yeast fitness
output: 0.781

input: # input variant: G48C A65C ; wanted: its yeast fitness
output: 0.989

input: # input variant: G38A U54A A57C ; wanted: its yeast fitness
output: 0.551

input: # input variant: G48C G67A ; wanted: its yeast fitness
output: 0.873

input: # input variant: A14G A36G G48A ; wanted: its yeast fitness
output: 0.555

input: # input variant: C11U C29U G67A ; wanted: its yeast fitness
output: 0.57

input: # input variant: C27A U28G ; wanted: its yeast fitness
output: 0.66

input: # input variant: U8A C61A A65U ; wanted: its yeast fitness
output: 0.554

input: # input variant: G18A G44A ; wanted: its yeast fitness
output: 0.637

input: # input variant: U7C A40U A42U U54A ; wanted: its yeast fitness
output: 0.661
